Test system: HOP-62 NSCLC
Assay: NCI tumour cell line growth inhibition, 48 h
Kindly state TGI for each of the entries shown.

>>> recorded_value("CC(C)C1(NC(=O)C2CC3c4cccc5[nH]cc(c45)CC3N(C)C2)OC2(O)C3CCCN3C(=O)C(Cc3ccccc3)N2C1=O (stereo not given)")
"> 100 µM"
>>> recorded_value("Cc1cc(N2CCCCC2)nc2ccc(Cc3ccc4nc(N5CCCCC5)cc(C)c4c3)cc12")
"> 100 µM"
>>> recorded_value("C1CSC[C@H]2COC[C@@H](CSCCS1)S2")
"> 100 µM"
>>> recorded_value("[N-]=[N+]=Nc1nc2ccccc2c(N=[N+]=[N-])c1Cl")
"> 100 µM"

Query: Could you tell me which TGI is on file for C=C(CN(CC)CC)C1(c2ccccc2)CC2(CCCC2)C(=O)O1 (stereo not given) ?
Result: > 100 µM
